# target.under.test: T1, Human CD137 displayed on yeast cells (human, UniProt Q07011 24-186, limits assumed)
# T1 construct: Yeast cells displaying human CD137, stained with serial dilutions of antibody; also called human CD137 on the cell surface
# test.method.notes: flow cytometry on yeast cells displaying human CD137; ratio to parental TY21242
value.kind: Masking efficiency
# respond with the number and nothing more

Example cases with answers are listed next.
>  <binder>
TY22598 (antibody, V domains shown, Full IgG4 expressed in mammalian cells, uncleaved) VH: EVQLVESGGGLVQPGGSLRLSCAASGFSLSTGGVGVGWIRQAPGKGLEWLALIDWADDKYYSPSLKSRLTISRDNSKNTLYLQLNSLRAEDTAVYYCARGGSDTVIGDWFAYWGQGTLVTVSS VL: EVGSYSNNFASCLWRHRSCADSGRSAGGGGSPLGLAGSGGSDIQLTQSPSSLSASVGDRVTITCRASQSIGSYLAWYQQKPGKAPKLLIYDASNLETGVPSRFSGSGSGTDFTLTISSLQPEDFATYYCQQGYYLWTFGQGTKVEIK

>  <value.kind>
Masking efficiency

>  <assay.value>
30.5

$$$$
>  <binder>
TY22594 (antibody, V domains shown, Full IgG4 expressed in mammalian cells, uncleaved) VH: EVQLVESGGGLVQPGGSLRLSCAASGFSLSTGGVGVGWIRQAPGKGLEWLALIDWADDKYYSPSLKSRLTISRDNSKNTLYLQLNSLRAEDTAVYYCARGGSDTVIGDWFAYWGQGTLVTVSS VL: EVGSYDTDYDFCPILRHRCDSSGRSAGGGGSPLGLAGSGGSDIQLTQSPSSLSASVGDRVTITCRASQSIGSYLAWYQQKPGKAPKLLIYDASNLETGVPSRFSGSGSGTDFTLTISSLQPEDFATYYCQQGYYLWTFGQGTKVEIK

>  <value.kind>
Masking efficiency

>  <assay.value>
83.7

$$$$
>  <binder>
TY22599 (antibody, V domains shown, Full IgG4 expressed in mammalian cells, uncleaved) VH: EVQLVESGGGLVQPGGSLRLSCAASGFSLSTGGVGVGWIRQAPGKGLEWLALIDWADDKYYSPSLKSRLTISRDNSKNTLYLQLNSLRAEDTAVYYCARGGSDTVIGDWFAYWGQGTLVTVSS VL: EVGSYTDNYDYCPRLRRKCYHSGRSAGGGGSPLGLAGSGGSDIQLTQSPSSLSASVGDRVTITCRASQSIGSYLAWYQQKPGKAPKLLIYDASNLETGVPSRFSGSGSGTDFTLTISSLQPEDFATYYCQQGYYLWTFGQGTKVEIK

>  <value.kind>
Masking efficiency

>  <assay.value>
348

$$$$
>  <binder>
TY22595 (antibody, V domains shown, Full IgG4 expressed in mammalian cells, uncleaved) VH: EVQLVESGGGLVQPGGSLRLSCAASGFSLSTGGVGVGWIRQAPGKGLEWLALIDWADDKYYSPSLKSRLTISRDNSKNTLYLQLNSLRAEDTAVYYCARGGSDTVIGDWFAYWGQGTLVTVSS VL: EVGSYNDYNYHCKWRPSRCHNSGRSAGGGGSPLGLAGSGGSDIQLTQSPSSLSASVGDRVTITCRASQSIGSYLAWYQQKPGKAPKLLIYDASNLETGVPSRFSGSGSGTDFTLTISSLQPEDFATYYCQQGYYLWTFGQGTKVEIK

>  <value.kind>
Masking efficiency

>  <assay.value>
379

$$$$
>  <binder>
TY21242 (antibody, V domains shown, Anti-human-CD137 antibody; the isotype of the parent is not restated; also called parental antibody TY21242; parental CD137 antibody) VH: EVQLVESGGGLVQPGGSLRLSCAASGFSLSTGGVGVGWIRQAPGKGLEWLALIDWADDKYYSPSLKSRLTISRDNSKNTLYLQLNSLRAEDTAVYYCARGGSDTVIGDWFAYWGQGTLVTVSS VL: DIQLTQSPSSLSASVGDRVTITCRASQSIGSYLAWYQQKPGKAPKLLIYDASNLETGVPSRFSGSGSGTDFTLTISSLQPEDFATYYCQQGYYLWTFGQGTKVEIK

>  <value.kind>
Masking efficiency

>  <assay.value>
1

$$$$

// TY22596 (antibody, V domains shown, Full IgG4 expressed in mammalian cells, uncleaved) VH: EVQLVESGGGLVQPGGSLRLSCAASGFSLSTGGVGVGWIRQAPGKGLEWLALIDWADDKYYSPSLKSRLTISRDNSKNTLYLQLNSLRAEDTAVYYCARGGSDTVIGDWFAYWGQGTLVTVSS VL: EVGSYYHDYDDCRVLPRRCFNSGRSAGGGGSPLGLAGSGGSDIQLTQSPSSLSASVGDRVTITCRASQSIGSYLAWYQQKPGKAPKLLIYDASNLETGVPSRFSGSGSGTDFTLTISSLQPEDFATYYCQQGYYLWTFGQGTKVEIK : Masking efficiency value = 20.8

For TY22591 (antibody, V domains shown, Full IgG4 expressed in mammalian cells, uncleaved) VH: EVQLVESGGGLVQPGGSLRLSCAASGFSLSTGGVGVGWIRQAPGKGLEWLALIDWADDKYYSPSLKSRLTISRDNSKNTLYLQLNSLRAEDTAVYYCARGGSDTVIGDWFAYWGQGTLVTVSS VL: EVGSYSSTHAHCHHSPANCISSGRSAGGGGSPLGLAGSGGSDIQLTQSPSSLSASVGDRVTITCRASQSIGSYLAWYQQKPGKAPKLLIYDASNLETGVPSRFSGSGSGTDFTLTISSLQPEDFATYYCQQGYYLWTFGQGTKVEIK the binder record lists Masking efficiency as 38.3
